Experiment: Cytotoxicity against mouse HT22 cells as cell viability at 5 uM after 24 hrs by MTT assay relative to control
Assay type: cell-based, HT-22
Conditions: read-out: Activity
Rule: viability at 24 h, 5 µM below 90% gives condition met. Equal to or above 90% gives condition not met.

As a guide, the following entries are already answered.
Smiles Text	Classification
CCc1nn(CC(=O)Nc2ccc(OC)c(OC)c2)c(=O)c2cc3sccc3n12	condition met
Cc1cc2c(cc3c(SCC(=O)N4CCN(c5ccccc5)CC4)nnc(C)n32)s1	condition not met

Strictly below 90% in viability at 24 h, 5 µM? Cc1nnc(SCC(=O)NCc2ccccc2)c2cc3sccc3n12
condition met

Lab log: compare recorded viability at 24 h, 5 µM with 90%; is it strictly lower for CCc1nnc(SCC(=O)N(CC)Cc2ccccc2)c2cc3sccc3n12 ?
condition not met

Would you kindly verify if viability at 24 h, 5 µM of Cc1nnc(SCC(=O)Nc2ccccc2)c2cc3sccc3n12 is strictly less than 90%?
condition not met

Field: below-cutoff. Rule: recorded viability at 24 h, 5 µM strictly less than 90%. Subject: CCN(Cc1ccccc1)C(=O)CSc1nnc(C)n2c1cc1sccc12
condition not met

Please determine if COc1cc(-c2nnc(SCc3c(F)cccc3Cl)o2)cc(OC)c1OC is below 90% in terms of viability at 24 h, 5 µM.
condition not met

State whether 90% exceeds viability at 24 h, 5 µM recorded for CCc1nnc(SCC(=O)N(CC)Cc2ccccc2)c2cc3sc(C)cc3n12 .
condition met

Report whether reported viability at 24 h, 5 µM is lower than 90% (strictly) for CCc1nnc(SCC(=O)NCc2ccccc2)c2cc3sccc3n12
condition met
